// merged dataset of pIC50 values, system = MERTK (Homo sapiens, UniProt Q12866), multiple refs
pIC50: −log10 of the molar value.

I looked up COc1cc2nccc(Oc3ccc(NC(=O)c4nn(CC5CCSCC5)cc(-c5ccc(C)cc5)c4=O)nc3)c2cc1OC and its pIC50 for MERTK (Homo sapiens, UniProt Q12866) was 9.00

I looked up CN1CCN(Cc2ccc(/C=C/C(=O)N3CC[C@@H](NC(=O)c4cc(-c5cnn(C)c5)cnc4N)C3)cc2)CC1 and its pIC50 for MERTK (Homo sapiens, UniProt Q12866) was 6.00 to 7.00

I looked up Nc1ncc(-c2cnn(C3CCNCC3)c2)cc1C(=O)N[C@@H]1CCN(Cc2c(Cl)cccc2Cl)C1 and its pIC50 for MERTK (Homo sapiens, UniProt Q12866) was < 6.00

I looked up COCCN1C(C)(C)CC(Oc2ncc([C@H]3CC[C@H](O)CC3)c3nc(NC4(C)CC4)ncc23)CC1(C)C and its pIC50 for MERTK (Homo sapiens, UniProt Q12866) was ≥ 7.00

I looked up COC[C@H](C)Nc1ncc2c(O[C@H]3CC[C@H](O)CC3)ncc([C@H]3CC[C@H](O)CC3)c2n1 and its pIC50 for MERTK (Homo sapiens, UniProt Q12866) was ≥ 7.00

I looked up COC[C@H](C)Nc1ncc2c(-c3cnn(C(C)(C)C(=O)N4CC(C)(O)C4)c3)cc([C@H]3CC[C@H](O)CC3)n2n1 and its pIC50 for MERTK (Homo sapiens, UniProt Q12866) was ≥ 7.00

I looked up CN1CCN(Cc2ccc(-c3cccc(CN4CC[C@@H](NC(=O)c5cc(-c6cnn(C)c6)cnc5N)C4)c3)cc2)CC1 and its pIC50 for MERTK (Homo sapiens, UniProt Q12866) was < 6.00

###

// merged dataset of IC50 values, system = MERTK (Homo sapiens), multiple refs

I looked up COC[C@H](C)Nc1ncc2c(-c3ccnc(C4COC4)c3)cc([C@H]3CC[C@H](O)CC3)n2n1 and its IC50 for MERTK (Homo sapiens) was ≤ 100 nM

I looked up COC1CCN(C(=O)c2ccc(-c3n[nH]c4ncc(-c5ccc6c(c5)CCC(C)(N5CCC[C@H]5C)CC6)cc34)cc2)CC1 (stereo partly shown) and its IC50 for MERTK (Homo sapiens) was 100 to 1000 nM

I looked up Cn1cc(-c2cnc(N)c(C(=O)N[C@@H]3CCN(C(=O)c4cc5cc(Br)ccc5s4)C3)c2)cn1 and its IC50 for MERTK (Homo sapiens) was 100 to 1000 nM

I looked up COC[C@H](C)Nc1ncc2c(-c3ccnc(N4CCN(S(=O)(=O)C(F)(F)F)CC4)c3)cc([C@H]3CC[C@H](O)CC3)n2n1 and its IC50 for MERTK (Homo sapiens) was ≤ 100 nM

I looked up COc1cc2nccc(Oc3ccc(NC(=O)c4cc(CC5CCOCC5)cn(-c5ccc(F)cc5)c4=O)nc3)c2cc1OC and its IC50 for MERTK (Homo sapiens) was 12 nM

I looked up Nc1ncc(-c2cnn(C3CCN(C(=O)C4CC4)CC3)c2)cc1-c1ncc(-c2cccc(Cl)c2)o1 and its IC50 for MERTK (Homo sapiens) was 1000 to 10000 nM

I looked up COC[C@H](C)Nc1ncc2c(O[C@H]3CCN(C)C(C)(C)C3)ncc([C@H]3CC[C@H](O)CC3)c2n1 and its IC50 for MERTK (Homo sapiens) was ≤ 100 nM

I looked up COC[C@H](C)Nc1ncc2c(-c3cnn(C(C)(C)C(=O)N4CC[C@@H](O)C4)c3)cc([C@H]3CC[C@H](O)CC3)n2n1 and its IC50 for MERTK (Homo sapiens) was ≤ 100 nM

I looked up Cc1csc(-c2ccc(C(=O)N3CC[C@@H](NC(=O)c4cc(-c5cnn(C)c5)cnc4N)C3)cc2)c1 and its IC50 for MERTK (Homo sapiens) was 10 to 100 nM

I looked up COCC(C)Nc1ncc2c(-c3ccc(C(C)N4CCCC4)cc3)cc(C3CCC(O)CC3)n2n1 (stereo not shown) and its IC50 for MERTK (Homo sapiens) was ≤ 100 nM

I looked up COc1cc2nccc(Oc3ccc(NC(=O)c4c(C)n(C)cc(-c5ccc(F)cn5)c4=O)cc3)c2nc1OC and its IC50 for MERTK (Homo sapiens) was 100 to 300 nM

I looked up CC(=O)Nc1cccc(OC(=O)N2CC[C@@H](NC(=O)c3cc(-c4cnn(C)c4)cnc3N)C2)c1 and its IC50 for MERTK (Homo sapiens) was > 1000 nM

I looked up CN1CCN(Cc2ccc(-c3cc(C4CCC(O)CC4)n4nc(NC5CCC5(C)C)ncc34)cc2)CC1 (mixture of isomers) and its IC50 for MERTK (Homo sapiens) was ≤ 100 nM

I looked up COCC(=O)N1C(C)(C)CC(Oc2ncc([C@H]3CC[C@H](O)CC3)c3nc(N[C@@H](C)CC(F)(F)F)ncc23)CC1(C)C and its IC50 for MERTK (Homo sapiens) was ≤ 100 nM

I looked up Cn1cc(-c2cnc(N)c(C(=O)N[C@@H]3CCN(C(=O)c4ccc(-c5ccc(F)cc5F)cc4)C3)c2)cn1 and its IC50 for MERTK (Homo sapiens) was 10 to 100 nM

I looked up COC[C@H](C)Nc1ncc2c(-c3cnn(C4CN(C(=O)C5(C(F)(F)F)CC5)C4)c3)cc([C@H]3CC[C@H](O)CC3)n2n1 and its IC50 for MERTK (Homo sapiens) was ≤ 100 nM

I looked up Cc1cc(-c2cc(C3CCC(O)CC3)n3nc(NC(C)CC4CC4)ncc23)ccn1 (stereo not shown) and its IC50 for MERTK (Homo sapiens) was ≤ 100 nM

I looked up Cn1cc(-c2cnc(N)c(C(=O)N[C@@H]3CCN(C(=O)c4ccc(-c5ccc(Oc6ccc(CO)cc6)cc5)cc4)C3)c2)cn1 and its IC50 for MERTK (Homo sapiens) was 10 to 100 nM

I looked up CNC(=O)c1ccc(-c2cc([C@H]3CC[C@H](O)CC3)n3nc(N[C@@H](C)COC)ncc23)cn1 and its IC50 for MERTK (Homo sapiens) was ≤ 100 nM

I looked up CC(C)(C)OC(=O)N1CCC(n2cc(-c3cnc(N)c(-c4nnc(-c5ccccc5)o4)c3)cn2)CC1 and its IC50 for MERTK (Homo sapiens) was 1000 to 10000 nM

I looked up COc1cn(-c2ccc(F)cc2C)nc1C(=O)Nc1ccc(Oc2ccnc3cc(OCCCN4CCOCC4)c4c(c23)OCCO4)c(F)c1 and its IC50 for MERTK (Homo sapiens) was ≤ 50 nM

I looked up CCOc1ccn(-c2ccc(F)cc2)c(=O)c1C(=O)Nc1ccc(Oc2ccnc3cc(OCC4(N)CC4)c4c(c23)OCCO4)c(F)c1 and its IC50 for MERTK (Homo sapiens) was ≤ 50 nM

I looked up COCC(C)Nc1ncc2c(-c3ccc4cc[nH]c4c3)cc(C3CCC(O)CC3)n2n1 (stereo not shown) and its IC50 for MERTK (Homo sapiens) was ≤ 100 nM

I looked up CC[C@H](C)Nc1ncc2c(NC3CCOCC3)ncc([C@H]3CC[C@H](O)CC3)c2n1 and its IC50 for MERTK (Homo sapiens) was ≤ 100 nM

I looked up COC[C@H](C)Nc1ncc2c(O[C@H]3CCN(C)C3)ncc([C@H]3CC[C@H](O)CC3)c2n1 and its IC50 for MERTK (Homo sapiens) was ≤ 100 nM

I looked up COc1cc(-c2n[nH]c3ncc(-c4ccc5c(c4)CCC(C)(N4CCC[C@H]4C)CC5)cc23)ccc1C(N)=O (stereo partly shown) and its IC50 for MERTK (Homo sapiens) was 100 to 1000 nM

I looked up CC(C)(C)OC(=O)N1CCC(n2cc(-c3cnc(N)c(-c4nnc(-c5nc(C(F)(F)F)cs5)o4)c3)cn2)CC1 and its IC50 for MERTK (Homo sapiens) was > 10000 nM

I looked up Cn1cc(-c2cnc(N)c(C(=O)N[C@@H]3CCN(C(=O)Oc4ccc(Cl)cc4C4CCCCC4)C3)c2)cn1 and its IC50 for MERTK (Homo sapiens) was > 1000 nM
